Parameter: folding stability dG. Scope: all listed entries.
B1: HEEH_KT_rd6_3546 (parent)
chain: SEEDKEREHWERLNRDFELRVLDTTFIAHHAEEVIKLLRWLEK

# Variants of: B1
# experimental-details: folding stability dG (cDNA display proteolysis); higher = more stable
# assay-conditions: PBS, room temperature

Consider the worked cases shown below.
SEEDKEREHWERLNRDFELRVLDTTFIAHHAEEVIKLNRWLEK [L38N] | 0.045 kcal/mol
SEEDKEREHWERLNRDFELRVLDTTFIAPHAEEVIKLLRWLEK [H29P] | 0.857 kcal/mol
VEEDKEREHWERLNRDFELRVLDTTFIAHHAEEVIKLLRWLEK [S1V] | 1.31 kcal/mol

What does the record list as folding stability dG for SEEDKEREHWERLNRDFELRVLDTTFIAHHKEEVIKLLRWLEK [A31K] ?
1.09 kcal/mol

What does the record list as folding stability dG for SEEDKEREHWERLNRDFELRVLDTTFIAHHAEEVIFLLRWLEK [K36F] ?
2.13 kcal/mol

What does the record list as folding stability dG for SEGDKEREHWERLNRDFELRVLDTTFIAHHAEEVIKLLRWLEK [E3G] ?
1.28 kcal/mol

What does the record list as folding stability dG for SEEDKEREHWERLNRDFSLRVLDTTFIAHHAEEVIKLLRWLEK [E18S] ?
1.83 kcal/mol

What does the record list as folding stability dG for SEEDKEREHWERLNRDFELRVLDTTFIAHHAEEVIKLLRWLED [K43D] ?
1.45 kcal/mol

What does the record list as folding stability dG for SEEDKEREHWERLNRDFELRVLDGTFIAHHAEEVIKLLRWLEK [T24G] ?
0.995 kcal/mol

What does the record list as folding stability dG for SEEDKEREHWERLNRDFELRVLDTTFIAFHAEEVIKLLRWLEK [H29F] ?
2.21 kcal/mol

What does the record list as folding stability dG for SEEDKEREHWERLNRDFENRVLDTTFIAHHAEEVIKLLRWLEK [L19N] ?
0.808 kcal/mol

What does the record list as folding stability dG for SEEDKEREHWERLNRDFELRVLDTTFIAHHAEEVIKLLRWLIK [E42I] ?
2.41 kcal/mol

What does the record list as folding stability dG for SEEDKEREHWERLNRDFELRVLDTTFIAHHAEEVIKLLYWLEK [R39Y] ?
1.54 kcal/mol

What does the record list as folding stability dG for SEEDKEREHWERLNRRFELRVLDTTFIAHHAEEVIKLLRWLEK [D16R] ?
1.76 kcal/mol

What does the record list as folding stability dG for SEEDKEREHWERLNRDQELRVLDTTFIAHHAEEVIKLLRWLEK [F17Q] ?
0.444 kcal/mol

What does the record list as folding stability dG for SEEDKEREHWERLNRDFELRVLDTTFIFHHAEEVIKLLRWLEK [A28F] ?
1.94 kcal/mol

What does the record list as folding stability dG for SEEDKEREHWERLNRDFELRVLDTTFIAHHAEEVFKLLRWLEK [I35F] ?
1.49 kcal/mol

What does the record list as folding stability dG for SEEDKEREHWERLNRDFELRELDTTFIAHHAEEVIKLLRWLEK [V21E] ?
1.06 kcal/mol

What does the record list as folding stability dG for SEEDKEREHWERLNRDFELRVLDTTLIAHHAEEVIKLLRWLEK [F26L] ?
0.925 kcal/mol

The values you see were collected from the MegaScale stability set (Tsuboyama et al. 2023).
